target: Polyunsaturated fatty acid 5-lipoxygenase (Homo sapiens); experiment: Inhibition of 5-LOX (unknown origin) using arachidonic acid as substrate at 1 uM after 5 mins by EIA
Measured Quantity: inhibition (%)

I. COC(=O)CC[C@@H](NC(=O)C(=O)c1c[nH]c2ccccc12)C(=O)OC
II. Cc1ccc(S(=O)(=O)n2cc(C(=O)C(=O)N[C@H](Cc3c[nH]c4ccccc34)C(=O)O)c3ccccc32)cc1
Pick one: I or II . Which one has the lower reported inhibition? // return label of chosen record
I
(I: 44.8%, II: 67.3%)

----------
molecular target: Polyunsaturated fatty acid 5-lipoxygenase (Homo sapiens) (UniProt P09917); assay: Inhibition of 5-LOX (unknown origin) using arachidonic acid as substrate at 0.01 uM after 5 mins by EIA
Measured Quantity: inhibition (%)

1) Cc1ccc(S(=O)(=O)n2cc(C(=O)C(=O)N3CCC[C@@H]3C(=O)O)c3ccccc32)cc1; 27.3
2) COC(=O)CC[C@@H](NC(=O)C(=O)c1c[nH]c2ccccc12)C(=O)OC; 36

A. COC(=O)CNC(=O)C(=O)c1cn(S(=O)(=O)c2ccc(C)cc2)c2ccccc12
B. COC(=O)CC[C@@H](NC(=O)C(=O)c1cn(S(=O)(=O)c2ccc(C)cc2)c2ccccc12)C(=O)OC
C. COC(=O)[C@@H](Cc1c[nH]c2ccccc12)NC(=O)C(=O)c1c[nH]c2ccccc12
Ascending by inhibition, please. In your reply, arrange the labels in the requested order.
B, C, A

----------
target: Prostaglandin G/H synthase 1 (Homo sapiens); assay: Inhibition of COX1 (unknown origin) by EIA
The source made the active and inactive calls. The calls are words filed in the database; no cut-off is given here.
Measured Quantity: inhibition

1) COC(=O)[C@H]1CCCN1C(=O)C(=O)c1c[nH]c2ccccc12; inactive
2) COC(=O)CC[C@@H](NC(=O)C(=O)c1cn(S(=O)(=O)c2ccc(C)cc2)c2ccccc12)C(=O)OC; inactive
3) COC(=O)CNC(=O)C(=O)c1cn(S(=O)(=O)c2ccc(C)cc2)c2ccccc12; inactive
4) COC(=O)[C@@H](Cc1cnc[nH]1)NC(=O)C(=O)c1c[nH]c2ccccc12; inactive
5) COC(=O)[C@@H](Cc1c[nH]c2ccccc12)NC(=O)C(=O)c1c[nH]c2ccccc12; inactive
6) COC(=O)CC[C@@H](NC(=O)C(=O)c1c[nH]c2ccccc12)C(=O)OC; inactive
7) COC(=O)[C@@H](Cc1cnc[nH]1)NC(=O)C(=O)c1cn(S(=O)(=O)c2ccc(C)cc2)c2ccccc12; inactive
8) Cc1ccc(S(=O)(=O)n2cc(C(=O)C(=O)N3CCC[C@@H]3C(=O)O)c3ccccc32)cc1; inactive

Now turn to the next compound.
Using the record for Cc1ccc(S(=O)(=O)n2cc(C(=O)C(=O)NCC(=O)O)c3ccccc32)cc1 , report its inhibition.
inactive

----------
target: Polyunsaturated fatty acid 5-lipoxygenase (Homo sapiens) (UniProt P09917); assay: Inhibition of 5-LOX (unknown origin) using arachidonic acid as substrate at 0.1 uM after 5 mins by EIA
Measured Quantity: inhibition (%)

The cases that follow already have their inhibition on record.
1) COC(=O)[C@@H](Cc1cnc[nH]1)NC(=O)C(=O)c1c[nH]c2ccccc12; 37.7
2) COC(=O)[C@H]1CCCN1C(=O)C(=O)c1c[nH]c2ccccc12; 25.5
3) COC(=O)CC[C@@H](NC(=O)C(=O)c1cn(S(=O)(=O)c2ccc(C)cc2)c2ccccc12)C(=O)OC; 35.2
4) COC(=O)[C@@H](Cc1c[nH]c2ccccc12)NC(=O)C(=O)c1cn(S(=O)(=O)c2ccc(C)cc2)c2ccccc12; 55.3
5) COC(=O)[C@@H](Cc1cnc[nH]1)NC(=O)C(=O)c1cn(S(=O)(=O)c2ccc(C)cc2)c2ccccc12; 40.5

1. COC(=O)CNC(=O)C(=O)c1c[nH]c2ccccc12
2. Cc1ccc(S(=O)(=O)n2cc(C(=O)C(=O)N[C@H](Cc3cnc[nH]3)C(=O)O)c3ccccc32)cc1
Lower value for measured inhibition? Options: 1 , 2 Lab note: record the label of whichever item you select.
2

----------
target: Polyunsaturated fatty acid 5-lipoxygenase (Homo sapiens) (UniProt P09917); assay: Inhibition of 5-LOX (unknown origin) using arachidonic acid as substrate at 0.01 uM after 5 mins by EIA
Measured Quantity: inhibition (%)

Worked cases, answers included:
1) COC(=O)[C@H]1CCCN1C(=O)C(=O)c1cn(S(=O)(=O)c2ccc(C)cc2)c2ccccc12; 38.5
2) COC(=O)[C@H]1CCCN1C(=O)C(=O)c1c[nH]c2ccccc12; 22.5
3) COC(=O)[C@@H](Cc1c[nH]c2ccccc12)NC(=O)C(=O)c1cn(S(=O)(=O)c2ccc(C)cc2)c2ccccc12; 45.5
4) COC(=O)[C@@H](Cc1cnc[nH]1)NC(=O)C(=O)c1cn(S(=O)(=O)c2ccc(C)cc2)c2ccccc12; 30
5) Cc1ccc(S(=O)(=O)n2cc(C(=O)C(=O)N[C@H](CCC(=O)O)C(=O)O)c3ccccc32)cc1; 42

P. Cc1ccc(S(=O)(=O)n2cc(C(=O)C(=O)N[C@H](Cc3c[nH]c4ccccc34)C(=O)O)c3ccccc32)cc1
Q. Cc1ccc(S(=O)(=O)n2cc(C(=O)C(=O)N[C@H](Cc3cnc[nH]3)C(=O)O)c3ccccc32)cc1
# argmax over inhibition for candidates P and Q Select an item and report its label.
P
(P: 51%, Q: 20%)

A. COC(=O)CNC(=O)C(=O)c1c[nH]c2ccccc12
B. Cc1ccc(S(=O)(=O)n2cc(C(=O)C(=O)NCC(=O)O)c3ccccc32)cc1
Lab note: check whether A or B has the lower measured inhibition. Lab note: record the label of whichever item you select.
A
(A: 40%, B: 57.4%)

----------
Molecular target: UniProt:P09917
Sequence (whole entry): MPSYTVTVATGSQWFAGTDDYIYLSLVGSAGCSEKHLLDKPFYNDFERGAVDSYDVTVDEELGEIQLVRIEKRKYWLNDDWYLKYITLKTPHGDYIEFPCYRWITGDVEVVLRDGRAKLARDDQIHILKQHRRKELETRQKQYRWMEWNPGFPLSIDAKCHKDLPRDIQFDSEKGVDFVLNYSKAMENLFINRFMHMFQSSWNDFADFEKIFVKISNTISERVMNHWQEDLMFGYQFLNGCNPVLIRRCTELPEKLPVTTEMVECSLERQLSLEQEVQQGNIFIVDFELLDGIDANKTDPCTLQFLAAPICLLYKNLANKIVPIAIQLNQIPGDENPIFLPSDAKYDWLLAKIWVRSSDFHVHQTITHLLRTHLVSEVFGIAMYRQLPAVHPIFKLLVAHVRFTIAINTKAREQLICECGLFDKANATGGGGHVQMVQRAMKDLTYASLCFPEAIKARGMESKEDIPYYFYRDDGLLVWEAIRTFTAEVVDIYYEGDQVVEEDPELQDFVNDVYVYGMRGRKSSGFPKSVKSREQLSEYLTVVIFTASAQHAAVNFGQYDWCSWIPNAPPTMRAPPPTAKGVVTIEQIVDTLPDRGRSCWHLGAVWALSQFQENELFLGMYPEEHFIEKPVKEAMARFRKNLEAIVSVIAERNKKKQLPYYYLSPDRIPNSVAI
Assay: Inhibition of 5-LOX (unknown origin) by UV-Vis spectrophotometry
Measured Quantity: Ka (×10⁵ /M)

Solved entries (count: 3):
1. Cc1ccc(S(=O)(=O)n2cc(C(=O)C(=O)N[C@H](CCC(=O)O)C(=O)O)c3ccccc32)cc1; 1.1
2. COC(=O)CC[C@@H](NC(=O)C(=O)c1cn(S(=O)(=O)c2ccc(C)cc2)c2ccccc12)C(=O)OC; 1.06
3. Cc1ccc(S(=O)(=O)n2cc(C(=O)C(=O)N[C@H](Cc3c[nH]c4ccccc34)C(=O)O)c3ccccc32)cc1; 3.6

P. COC(=O)[C@@H](Cc1c[nH]c2ccccc12)NC(=O)C(=O)c1cn(S(=O)(=O)c2ccc(C)cc2)c2ccccc12
Q. Cc1ccc(S(=O)(=O)n2cc(C(=O)C(=O)N3CCC[C@@H]3C(=O)O)c3ccccc32)cc1
R. COC(=O)[C@H]1CCCN1C(=O)C(=O)c1cn(S(=O)(=O)c2ccc(C)cc2)c2ccccc12
hey, can you rank those compounds up there by Ka? biggest number first please // rank by listing labels in the order requested
P, Q, R
(P: 6.67 ×10⁵ /M, Q: 2.6 ×10⁵ /M, R: 1.2 ×10⁵ /M)

----------
biological target: Polyunsaturated fatty acid 5-lipoxygenase (Homo sapiens); assay: Inhibition of 5-LOX (unknown origin) using arachidonic acid as substrate at 10 uM after 5 mins by EIA
Measured Quantity: inhibition (%)

// worked examples, inhibition included
1) Cc1ccc(S(=O)(=O)n2cc(C(=O)C(=O)N[C@H](Cc3c[nH]c4ccccc34)C(=O)O)c3ccccc32)cc1; 81.5
2) COC(=O)[C@@H](Cc1cnc[nH]1)NC(=O)C(=O)c1c[nH]c2ccccc12; 45.5
3) COC(=O)CNC(=O)C(=O)c1c[nH]c2ccccc12; 55.5
4) COC(=O)[C@H]1CCCN1C(=O)C(=O)c1cn(S(=O)(=O)c2ccc(C)cc2)c2ccccc12; 69.3

A. COC(=O)CC[C@@H](NC(=O)C(=O)c1cn(S(=O)(=O)c2ccc(C)cc2)c2ccccc12)C(=O)OC
B. Cc1ccc(S(=O)(=O)n2cc(C(=O)C(=O)N[C@H](CCC(=O)O)C(=O)O)c3ccccc32)cc1
Which of the two items, A and B , has the greater recorded inhibition? I would appreciate it if you answered with the label of your choice.
B

I. Cc1ccc(S(=O)(=O)n2cc(C(=O)C(=O)N[C@H](Cc3cnc[nH]3)C(=O)O)c3ccccc32)cc1
II. COC(=O)CNC(=O)C(=O)c1cn(S(=O)(=O)c2ccc(C)cc2)c2ccccc12
Higher inhibition: I or II ? # answer = label of selected item
II
(II: 85%, I: 55.5%)
